FYI, the data here is from patent US20240041042A1.

Test system: Triticum aestivum (TRZAS)
Type: in vivo
Condition description: crop plant compatibility, 320 g/ha, effect vs untreated controls
Measured metric: Post-emergence action against TRZAS in % (%)

The cases that follow already have their Post-emergence action against TRZAS in % on record.
Compound	Measured metric	Endpoint value
O=C(O)C1CCN(C(=O)COc2nn(-c3ccccn3)c(-c3ccc(F)nc3)c2Br)CC1	Post-emergence action against TRZAS in %	0
O=C(O)C1CCN(C(=O)COc2nn(-c3ccccn3)c(-c3cncc(F)c3)c2Br)C1 (racemic)	Post-emergence action against TRZAS in %	0

(a) O=C(O)COc1nn(-c2ccccn2)c(-c2ccc(F)nc2)c1C1CC1(F)F (stereo not shown)
(b) CCOC(=O)COc1nn(-c2ccc(Br)c(C)n2)c(-c2cncc(F)c2)c1Br
Could you check which of a and b has a smaller value for Post-emergence action against TRZAS in %? Choose, then provide that item's label.
a
(a: 0%, b: 10%)
